- TARGET_SYSTEM: FGFR3 (UniProt P22607)
- Sequence (P22607 whole entry, looked up): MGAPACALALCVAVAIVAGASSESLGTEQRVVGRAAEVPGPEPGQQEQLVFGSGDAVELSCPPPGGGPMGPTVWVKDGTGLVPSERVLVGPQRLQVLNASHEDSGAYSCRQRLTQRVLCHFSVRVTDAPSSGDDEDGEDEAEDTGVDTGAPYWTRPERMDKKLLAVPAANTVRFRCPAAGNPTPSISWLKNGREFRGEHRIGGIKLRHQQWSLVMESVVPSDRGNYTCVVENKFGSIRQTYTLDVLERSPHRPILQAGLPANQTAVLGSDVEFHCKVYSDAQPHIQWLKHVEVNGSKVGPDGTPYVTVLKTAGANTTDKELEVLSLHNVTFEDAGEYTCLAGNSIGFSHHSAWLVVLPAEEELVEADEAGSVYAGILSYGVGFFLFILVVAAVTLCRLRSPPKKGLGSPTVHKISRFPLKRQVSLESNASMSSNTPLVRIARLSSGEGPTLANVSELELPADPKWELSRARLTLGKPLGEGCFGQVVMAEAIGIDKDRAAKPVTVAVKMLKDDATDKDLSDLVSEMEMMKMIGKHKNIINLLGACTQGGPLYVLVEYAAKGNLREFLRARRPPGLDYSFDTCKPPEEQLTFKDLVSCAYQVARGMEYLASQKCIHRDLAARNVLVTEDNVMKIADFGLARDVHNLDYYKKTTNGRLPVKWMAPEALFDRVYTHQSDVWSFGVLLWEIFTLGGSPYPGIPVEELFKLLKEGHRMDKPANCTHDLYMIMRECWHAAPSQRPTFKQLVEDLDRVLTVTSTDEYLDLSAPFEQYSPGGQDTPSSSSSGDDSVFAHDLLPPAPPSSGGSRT
- ASSAY_EXPLANATION: phosphorylation enrichment, bacterial display (enrichment ratio); higher = better substrate or ligand; peptides without Tyr show the background;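 note: 11-residue human phosphosite peptides and single-mutation variants displayed on the E. coli surface, counted by deep sequencing, each peptide's frequency after selection divided by its frequency in the unselected input library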;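 note: frequency after pTyr selection over input frequency; kinase dosed for 20-30% of maximal phosphorylation in three min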
Here, each record is paired with measured phosphorylation enrichment data.
PROPERTY: phosphorylation enrichment

[
  {
    "CONSTRUCT_SEQUENCE": "PLTKVYVVEGS [ZMPSTE24_Y253]",
    "TARGET_SYSTEM": "FGFR3 (UniProt P22607)",
    "ENDPOINT_RESULT": 0.73
  },
  {
    "CONSTRUCT_SEQUENCE": "VREIRYQGGNR [VWF_Y1570]",
    "TARGET_SYSTEM": "FGFR3 (UniProt P22607)",
    "ENDPOINT_RESULT": 0.382
  },
  {
    "CONSTRUCT_SEQUENCE": "TLSGTYQYIIA [FOXL2_Y81_I80T]",
    "TARGET_SYSTEM": "FGFR3 (UniProt P22607)",
    "ENDPOINT_RESULT": 3.44
  },
  {
    "CONSTRUCT_SEQUENCE": "DLAGRYYALKS [CKB_Y173]",
    "TARGET_SYSTEM": "FGFR3 (UniProt P22607)",
    "ENDPOINT_RESULT": 0.85
  },
  {
    "CONSTRUCT_SEQUENCE": "DLDPNYVVSSR [CKM_Y125_L127V]",
    "TARGET_SYSTEM": "FGFR3 (UniProt P22607)",
    "ENDPOINT_RESULT": 0.69
  },
  {
    "CONSTRUCT_SEQUENCE": "DGYIDYAEFAK [MCFD2_Y138]",
    "TARGET_SYSTEM": "FGFR3 (UniProt P22607)",
    "ENDPOINT_RESULT": 1
  },
  {
    "CONSTRUCT_SEQUENCE": "GLDSSYLLRDS [SH2D1A_Y29_G27S]",
    "TARGET_SYSTEM": "FGFR3 (UniProt P22607)",
    "ENDPOINT_RESULT": 0.426
  },
  {
    "CONSTRUCT_SEQUENCE": "ASGKYYAMKIL [AKT3_Y174]",
    "TARGET_SYSTEM": "FGFR3 (UniProt P22607)",
    "ENDPOINT_RESULT": 0.623
  },
  {
    "CONSTRUCT_SEQUENCE": "PSQRHYVYYYS [PTEN_Y174_R173H]",
    "TARGET_SYSTEM": "FGFR3 (UniProt P22607)",
    "ENDPOINT_RESULT": 6.63
  },
  {
    "CONSTRUCT_SEQUENCE": "TDECEYDELIV [TGM1_Y136_Y134C]",
    "TARGET_SYSTEM": "FGFR3 (UniProt P22607)",
    "ENDPOINT_RESULT": 0.865
  },
  {
    "CONSTRUCT_SEQUENCE": "SIKDKYVTAFF [KCNH2_Y611_L615F_YF]",
    "TARGET_SYSTEM": "FGFR3 (UniProt P22607)",
    "ENDPOINT_RESULT": 0.489
  },
  {
    "CONSTRUCT_SEQUENCE": "KSSDVYVSFDF [SORL1_Y136_YF]",
    "TARGET_SYSTEM": "FGFR3 (UniProt P22607)",
    "ENDPOINT_RESULT": 2.81
  },
  {
    "CONSTRUCT_SEQUENCE": "SISLRYEGRVF [ABL1_Y167_YF]",
    "TARGET_SYSTEM": "FGFR3 (UniProt P22607)",
    "ENDPOINT_RESULT": 0.838
  },
  {
    "CONSTRUCT_SEQUENCE": "GKMSSYAFFVQ [HMGB1_Y16]",
    "TARGET_SYSTEM": "FGFR3 (UniProt P22607)",
    "ENDPOINT_RESULT": 0.741
  }
]
